- Tested target: cloned human δ opioid receptor (Homo sapiens)
- Construct: expressed in transfected cells; host or cells: C6 glioma cells (permanently transfected)
- Sequence (P41143 whole entry): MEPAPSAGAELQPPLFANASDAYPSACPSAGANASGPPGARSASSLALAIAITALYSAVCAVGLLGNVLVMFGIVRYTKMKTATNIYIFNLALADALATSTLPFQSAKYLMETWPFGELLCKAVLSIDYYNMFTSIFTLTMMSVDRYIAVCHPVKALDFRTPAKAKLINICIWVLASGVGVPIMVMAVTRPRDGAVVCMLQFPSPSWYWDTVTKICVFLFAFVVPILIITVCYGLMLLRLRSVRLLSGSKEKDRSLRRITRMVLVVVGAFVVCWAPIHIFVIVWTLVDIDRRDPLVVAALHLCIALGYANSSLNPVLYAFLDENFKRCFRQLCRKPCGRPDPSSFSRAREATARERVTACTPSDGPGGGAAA
- Measurement notes: Radioligand binding, competitive inhibition of [3H]DPDPE
- Condition notes: Table 7; delta opioid receptor; read-out: pIC50 values for the delta opioid receptor agonist test (converted)
Define the label as Satisfied when IC50 is strictly less than 30 nM and as Not satisfied in all remaining cases.

Smiles repr	Tested target	Category
O=C(Nc1ccccc1Cl)N1CCC(c2ccccc2)(c2nccn2Cc2ccccc2)CC1	cloned human δ opioid receptor (Homo sapiens)	Not satisfied
COc1ccc(Cl)cc1NC(=O)N1CCC(c2ccccc2)(c2nccn2Cc2ccccc2)CC1	cloned human δ opioid receptor (Homo sapiens)	Satisfied
O=C(c1cc(C(F)(F)F)cc(C(F)(F)F)c1)N1CCC(c2ccccc2)(c2nccn2Cc2ccccc2)CC1	cloned human δ opioid receptor (Homo sapiens)	Not satisfied
O=C(Nc1ccccc1CO)N1CCC(c2ccccc2)(c2nccn2Cc2ccccc2)CC1	cloned human δ opioid receptor (Homo sapiens)	Not satisfied
O=C(c1csc(-c2cccnc2)n1)N1CCC(c2ccccc2)(c2nccn2Cc2ccccc2)CC1	cloned human δ opioid receptor (Homo sapiens)	Not satisfied
O=C(O)c1ccccc1NC(=O)N1CCC(c2ccccc2)(c2nccn2Cc2ccccc2)CC1	cloned human δ opioid receptor (Homo sapiens)	Satisfied
CCOC(=O)N1CCC(c2ccccc2)(c2nccn2Cc2ccc3ccccc3c2)CC1	cloned human δ opioid receptor (Homo sapiens)	Not satisfied
COC(=O)c1ccc(Cn2ccnc2C2(c3ccccc3)CCN(C(=O)Nc3ccccc3)CC2)cc1	cloned human δ opioid receptor (Homo sapiens)	Satisfied
